measured on: T1, EsCas13d, nuclease-dead (Eubacterium siraeum, UniProt B0MS50, R295A;H300A;R849A;H854A)
T1 sequence: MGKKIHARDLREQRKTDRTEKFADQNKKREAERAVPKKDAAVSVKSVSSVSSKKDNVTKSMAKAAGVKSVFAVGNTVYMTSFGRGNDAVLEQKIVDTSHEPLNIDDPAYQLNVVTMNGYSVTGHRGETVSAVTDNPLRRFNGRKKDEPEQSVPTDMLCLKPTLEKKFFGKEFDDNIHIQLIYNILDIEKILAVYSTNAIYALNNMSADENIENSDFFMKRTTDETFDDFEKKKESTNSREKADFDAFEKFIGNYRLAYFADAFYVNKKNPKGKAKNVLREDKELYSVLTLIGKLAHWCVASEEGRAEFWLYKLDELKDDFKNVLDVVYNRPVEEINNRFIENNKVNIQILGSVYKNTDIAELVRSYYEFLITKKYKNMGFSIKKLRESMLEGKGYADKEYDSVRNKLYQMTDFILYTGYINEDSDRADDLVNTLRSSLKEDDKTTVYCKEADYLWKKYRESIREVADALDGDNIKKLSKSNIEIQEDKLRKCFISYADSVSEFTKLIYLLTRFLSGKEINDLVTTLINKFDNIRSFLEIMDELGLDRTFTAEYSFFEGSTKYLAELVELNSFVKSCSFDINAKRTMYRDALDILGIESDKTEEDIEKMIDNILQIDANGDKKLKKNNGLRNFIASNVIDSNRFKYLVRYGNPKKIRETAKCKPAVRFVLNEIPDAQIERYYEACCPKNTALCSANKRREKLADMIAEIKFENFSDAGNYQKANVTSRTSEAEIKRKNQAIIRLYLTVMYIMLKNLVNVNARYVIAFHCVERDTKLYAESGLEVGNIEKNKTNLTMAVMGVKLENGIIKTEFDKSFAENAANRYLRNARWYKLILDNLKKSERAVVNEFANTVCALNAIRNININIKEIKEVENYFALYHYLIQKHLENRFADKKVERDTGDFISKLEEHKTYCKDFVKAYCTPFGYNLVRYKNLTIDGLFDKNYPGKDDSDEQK
assay info: crRNA (strand 1, pre-loaded); Mg2+; 40 mM Tris-HCl pH 7.5, 150 mM NaCl, 6 mM MgCl2, 1 mM DTT, 0.1% Tween-20, 0.2 mg/ml BSA; 25 C; 10 min per concentration, then washed
condition details: tags: His6-TwinStrep-SUMO cleaved; N-terminal SNAP kept (SNAP-Surface 488); label: 3' end held by stalled T7 RNA polymerase
readout label: log10 Kd (log10 of the value in nM)
Note the log scale: values are log10 of Kd expressed in nM.

INSERT INTO measurements (binder, val) VALUES
  ('target 2 MT 5''PFS GAC 3''PFS UCA (mixed) RNA 1: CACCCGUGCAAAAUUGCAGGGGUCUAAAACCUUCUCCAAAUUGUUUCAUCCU RNA 2: GGGAAUGGAUCCACAUCUACGAAUUCGACAGGAUGAAACAAUUUGGAGAAGUCAAGAUCGGAAGAGCACACGU', 1.14),
  ('target 1 insU 3'' of 6,insG 3'' of 4 (mixed) RNA 1: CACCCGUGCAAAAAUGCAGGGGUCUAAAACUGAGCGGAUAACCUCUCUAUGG RNA 2: GGGAAUGGAUCCACAUCUACGAAUUCGUACCAUAGAGAGGUUAUCCUGCGUCACCGAGAUCGGAAGAGCACACGU', 0.86),
  ('target 1 insU 3'' of 15,insU 3'' of 13 (mixed) RNA 1: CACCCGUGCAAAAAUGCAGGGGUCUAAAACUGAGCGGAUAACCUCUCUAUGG RNA 2: GGGAAUGGAUCCACAUCUACGAAUUCGUACCAUAGAGUAGUGUUAUCCGCUCACCGAGAUCGGAAGAGCACACGU', 1.30),
  ('target 1 insC 3'' of 15,insC 3'' of 5 (mixed) RNA 1: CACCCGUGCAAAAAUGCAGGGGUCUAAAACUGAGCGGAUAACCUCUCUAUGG RNA 2: GGGAAUGGAUCCACAUCUACGAAUUCGUACCAUAGAGCAGGUUAUCCGCCUCACCGAGAUCGGAAGAGCACACGU', 0.99),
  ('target 1 insA 3'' of 8,insG 3'' of 2 (mixed) RNA 1: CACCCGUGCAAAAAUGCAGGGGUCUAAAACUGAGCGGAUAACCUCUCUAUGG RNA 2: GGGAAUGGAUCCACAUCUACGAAUUCGUACCAUAGAGAGGUUAUACCGCUCGACCGAGAUCGGAAGAGCACACGU', 1.22),
  ('target 3 G3A,A18G (mixed) RNA 1: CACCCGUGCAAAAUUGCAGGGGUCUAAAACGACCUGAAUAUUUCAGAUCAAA RNA 2: GGGAAUGGAUCCACAUCUACGAAUUCGUUUUUGGUCUGAAAUAUUCAGAUCUGCAGAUCGGAAGAGCACACGU', 1.74),
  ('target 1 MT 5''PFS AGA 3''PFS AGU (mixed) RNA 1: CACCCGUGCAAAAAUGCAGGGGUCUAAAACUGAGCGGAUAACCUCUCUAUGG RNA 2: GGGAAUGGAUCCACAUCUACGAAUUCAGACCAUAGAGAGGUUAUCCGCUCAAGUAGAUCGGAAGAGCACACGU', 1.65),
  ('target 1 insC 3'' of 22,insA 3'' of 6 (mixed) RNA 1: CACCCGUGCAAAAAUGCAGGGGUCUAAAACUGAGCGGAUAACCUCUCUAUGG RNA 2: GGGAAUGGAUCCACAUCUACGAAUUCGUACCCAUAGAGAGGUUAUCCAGCUCACCGAGAUCGGAAGAGCACACGU', 1.11);

Now for another entry.
Any idea what its log10 Kd is? The binder is target 1 A1U,A16U (mixed) RNA 1: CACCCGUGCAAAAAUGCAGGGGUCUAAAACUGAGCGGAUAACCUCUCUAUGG RNA 2: GGGAAUGGAUCCACAUCUACGAAUUCGUACCAUAGUGAGGUUAUCCGCUCUCCGAGAUCGGAAGAGCACACGU
1.85

Origin of values: paper PMC10786891
